Sourced from paper PMC12416549

target of assay: T1, TNFR1 (Homo sapiens, UniProt P19438)
T1 chain: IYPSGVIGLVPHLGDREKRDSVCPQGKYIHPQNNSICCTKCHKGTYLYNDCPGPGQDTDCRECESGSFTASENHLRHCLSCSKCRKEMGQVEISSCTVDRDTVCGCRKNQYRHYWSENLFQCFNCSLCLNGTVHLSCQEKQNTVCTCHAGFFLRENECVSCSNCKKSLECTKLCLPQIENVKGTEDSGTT
method summary: yeast display SC50
result type: apparent Kd (screen) (nM)
Answer with a number only, understood to be in nM.

Per the record, A105P (designed binder) MTLQELLREEALRRAEAEAFRYALELLAEKFPEQKEYLLDLAEEIESQIRSLSGVDVEDVRKFLDKEWAWVKELLAEHPAELAEVEAARAARLAELRAEVEAKVPA has apparent Kd (screen) of 0.79

Per the record, R92C (designed binder) MTLQELLREEALRRAEAEAFRYALELLAEKFPEQKEYLLDLAEEIESQIRSLSGVDVEDVRKFLDKEWAWVKELLAEHPAELAEVEAARAACLAELRAEVEAKVAA has apparent Kd (screen) of 0.718

Per the record, L39S (designed binder) MTLQELLREEALRRAEAEAFRYALELLAEKFPEQKEYLSDLAEEIESQIRSLSGVDVEDVRKFLDKEWAWVKELLAEHPAELAEVEAARAARLAELRAEVEAKVAA has apparent Kd (screen) of 2.25

Per the record, E18Q (designed binder) MTLQELLREEALRRAEAQAFRYALELLAEKFPEQKEYLLDLAEEIESQIRSLSGVDVEDVRKFLDKEWAWVKELLAEHPAELAEVEAARAARLAELRAEVEAKVAA has apparent Kd (screen) of 0.539

Per the record, Q34G (designed binder) MTLQELLREEALRRAEAEAFRYALELLAEKFPEGKEYLLDLAEEIESQIRSLSGVDVEDVRKFLDKEWAWVKELLAEHPAELAEVEAARAARLAELRAEVEAKVAA has apparent Kd (screen) of 0.593

Per the record, L6H (designed binder) MTLQEHLREEALRRAEAEAFRYALELLAEKFPEQKEYLLDLAEEIESQIRSLSGVDVEDVRKFLDKEWAWVKELLAEHPAELAEVEAARAARLAELRAEVEAKVAA has apparent Kd (screen) of 8.56

Per the record, F63Q (designed binder) MTLQELLREEALRRAEAEAFRYALELLAEKFPEQKEYLLDLAEEIESQIRSLSGVDVEDVRKQLDKEWAWVKELLAEHPAELAEVEAARAARLAELRAEVEAKVAA has apparent Kd (screen) of 2.73

Per the record, A106Q (designed binder) MTLQELLREEALRRAEAEAFRYALELLAEKFPEQKEYLLDLAEEIESQIRSLSGVDVEDVRKFLDKEWAWVKELLAEHPAELAEVEAARAARLAELRAEVEAKVAQ has apparent Kd (screen) of 0.142
